molecular target: EGFR del19/T790M/C797S (Homo sapiens, UniProt P00533, C797S/DEL746-750/T790M); test: Biochemical EGFR kinase assay (Lance Ultra TR-FRET), triple mutant del19/T790M/C797S; settings: Km ATP; read-out: IC50 del19/T790M/C797S (nM) Km ATP
Sequence (P00533 with tags, fused parts or gaps DEL746-750/T790M/C797S): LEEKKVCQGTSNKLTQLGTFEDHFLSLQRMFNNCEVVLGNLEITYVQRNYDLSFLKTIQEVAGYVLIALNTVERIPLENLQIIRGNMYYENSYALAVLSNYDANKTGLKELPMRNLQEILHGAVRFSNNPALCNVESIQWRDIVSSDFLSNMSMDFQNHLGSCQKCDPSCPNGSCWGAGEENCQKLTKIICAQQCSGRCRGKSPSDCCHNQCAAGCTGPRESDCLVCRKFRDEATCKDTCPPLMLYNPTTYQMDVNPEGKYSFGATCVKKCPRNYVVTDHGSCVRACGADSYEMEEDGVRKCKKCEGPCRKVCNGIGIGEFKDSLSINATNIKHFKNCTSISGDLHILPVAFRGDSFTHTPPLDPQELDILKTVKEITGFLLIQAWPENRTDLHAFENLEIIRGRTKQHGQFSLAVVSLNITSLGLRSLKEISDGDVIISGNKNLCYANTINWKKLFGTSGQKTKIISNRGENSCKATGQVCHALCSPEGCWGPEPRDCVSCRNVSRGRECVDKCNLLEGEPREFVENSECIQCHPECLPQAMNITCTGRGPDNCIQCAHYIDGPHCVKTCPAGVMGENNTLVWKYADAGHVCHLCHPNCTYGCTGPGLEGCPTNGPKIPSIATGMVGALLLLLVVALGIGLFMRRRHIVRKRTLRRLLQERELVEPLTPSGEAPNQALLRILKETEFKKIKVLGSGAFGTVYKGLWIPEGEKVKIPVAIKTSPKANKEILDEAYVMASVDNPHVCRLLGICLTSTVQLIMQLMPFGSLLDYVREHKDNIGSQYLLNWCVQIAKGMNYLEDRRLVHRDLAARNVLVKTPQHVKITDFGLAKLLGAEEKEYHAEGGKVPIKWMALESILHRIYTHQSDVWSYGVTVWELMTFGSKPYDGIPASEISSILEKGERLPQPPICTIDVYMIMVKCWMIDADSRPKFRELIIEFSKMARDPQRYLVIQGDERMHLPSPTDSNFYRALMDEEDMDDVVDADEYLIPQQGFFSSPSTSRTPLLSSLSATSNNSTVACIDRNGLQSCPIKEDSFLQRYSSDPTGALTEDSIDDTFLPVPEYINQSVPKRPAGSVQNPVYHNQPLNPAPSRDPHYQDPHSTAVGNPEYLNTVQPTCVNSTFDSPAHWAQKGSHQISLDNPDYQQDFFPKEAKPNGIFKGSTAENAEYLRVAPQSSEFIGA
outcome_measure: IC50 (nM)

A = CN1CCC(Oc2cnc(-c3cnc(Nc4ccnc(-c5cnn(S(=O)(=O)C6CC6)c5)n4)cc3N[C@H]3CC[C@@H](CO)CC3)cn2)CC1
B = COC1CN(c2ccc(-c3cnc(Nc4ccnc(-c5cnn(S(=O)(=O)C6CC6)c5)n4)cc3N[C@H]3CC[C@@H](C(C)(C)O)CC3)nc2)C1
C = CN(C)C[C@H]1CC[C@@H](Nc2cc(Nc3ccnc(-c4cnn(S(=O)(=O)C5CC5)c4)n3)ncc2-c2ccc(N3CCC(F)(F)CC3)nn2)CC1
Request: Reorder the list: decreasing IC50. Please respond by ranking the labels in the order requested.
Result: B, C, A

A = CN1CCC(Oc2cnc(-c3cnc(Nc4ccnc(-c5cnn(S(=O)(=O)C6CC6)c5)n4)cc3N[C@H]3CC[C@@](C)(O)CC3)cn2)CC1
B = CC(C)(O)c1ccc(-c2cnc(Nc3ccnc(-c4cnn(S(=O)(=O)C5CC5)c4)n3)cc2N[C@H]2CC[C@@H](C(C)(C)O)CC2)nn1
Request: # min-compare on IC50 between A and B Answer with the label corresponding to your selection.
Result: A
(A: 0.1 nM, B: 0.4 nM)

* * *

molecular target: EGFR del19/C797S (Homo sapiens, UniProt P00533, C797S/DEL746-750); experiment: Biochemical EGFR kinase assay (Lance Ultra TR-FRET), double mutant del19/C797S; conditions: Km ATP; read-out: IC50 del19/C797S (nM) Km ATP
Sequence (P00533 with tags, fused parts or gaps DEL746-750/C797S): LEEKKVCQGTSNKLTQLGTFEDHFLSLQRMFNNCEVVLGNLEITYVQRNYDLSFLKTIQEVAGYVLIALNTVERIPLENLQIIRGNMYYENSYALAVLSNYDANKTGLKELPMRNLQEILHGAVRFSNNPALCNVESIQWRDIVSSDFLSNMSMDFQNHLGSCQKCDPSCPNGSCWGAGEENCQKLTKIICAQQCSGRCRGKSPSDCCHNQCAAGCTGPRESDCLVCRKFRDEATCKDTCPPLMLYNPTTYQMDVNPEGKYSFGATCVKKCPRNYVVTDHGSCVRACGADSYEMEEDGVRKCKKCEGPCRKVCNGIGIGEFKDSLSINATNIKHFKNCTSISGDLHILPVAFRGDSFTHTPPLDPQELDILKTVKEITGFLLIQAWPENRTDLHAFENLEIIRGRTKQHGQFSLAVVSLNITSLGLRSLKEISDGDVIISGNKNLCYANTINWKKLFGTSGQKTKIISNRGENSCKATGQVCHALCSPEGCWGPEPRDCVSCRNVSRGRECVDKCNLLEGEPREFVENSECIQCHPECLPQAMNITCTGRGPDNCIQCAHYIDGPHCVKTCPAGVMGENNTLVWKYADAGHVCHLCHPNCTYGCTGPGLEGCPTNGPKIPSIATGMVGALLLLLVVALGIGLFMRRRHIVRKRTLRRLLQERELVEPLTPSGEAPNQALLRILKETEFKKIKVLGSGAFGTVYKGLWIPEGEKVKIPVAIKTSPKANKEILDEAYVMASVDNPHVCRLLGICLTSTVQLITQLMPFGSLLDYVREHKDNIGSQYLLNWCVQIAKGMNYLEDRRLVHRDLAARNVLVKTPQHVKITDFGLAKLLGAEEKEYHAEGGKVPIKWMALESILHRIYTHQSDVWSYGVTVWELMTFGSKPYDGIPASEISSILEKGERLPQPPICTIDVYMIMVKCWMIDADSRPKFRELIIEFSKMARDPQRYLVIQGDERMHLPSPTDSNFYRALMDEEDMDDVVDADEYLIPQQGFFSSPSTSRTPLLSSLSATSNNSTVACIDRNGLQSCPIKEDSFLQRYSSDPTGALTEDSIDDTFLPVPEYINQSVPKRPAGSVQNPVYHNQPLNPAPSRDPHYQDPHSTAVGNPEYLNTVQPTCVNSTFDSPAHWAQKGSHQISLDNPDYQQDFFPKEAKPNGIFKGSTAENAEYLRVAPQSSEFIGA
outcome_measure: IC50 (nM)

molecule: CC(C)(O)[C@H]1CC[C@@H](Nc2cc(Nc3ccnc(-c4cnn(S(=O)(=O)C5CC5)c4)n3)ncc2-c2cc(CN3CCC(F)(F)CC3)ccn2)CC1 [Example 114]
tgt: EGFR del19/C797S (Homo sapiens, UniProt P00533, C797S/DEL746-750)
IC50 (nM): 27.1
//
molecule: O=S(=O)(C1CC1)n1cc(-c2nccc(Nc3cc(N[C@H]4CC[C@@H](NCCF)CC4)c(-c4ccc(CO)cn4)cn3)n2)cn1 [Example 21]
tgt: EGFR del19/C797S (Homo sapiens, UniProt P00533, C797S/DEL746-750)
IC50 (nM): 0.5
//
molecule: CC(C)(O)c1cnc(-c2cnc(Nc3ccnc(-c4cnn(S(=O)(=O)C5CC5)c4)n3)cc2N[C@H]2CC[C@@H](CO)CC2)cn1 [Example 119]
tgt: EGFR del19/C797S (Homo sapiens, UniProt P00533, C797S/DEL746-750)
IC50 (nM): 0.1
//
molecule: O=S(=O)(C1CC1)n1cc(-c2nccc(Nc3cc(N[C@H]4CC[C@H](CCO)CC4)c(-c4cc(C(F)F)ccn4)cn3)n2)cn1 [Example 96]
tgt: EGFR del19/C797S (Homo sapiens, UniProt P00533, C797S/DEL746-750)
IC50 (nM): 68
//
molecule: CN1CCN(c2ccc(-c3cnc(Nc4ccnc(-c5cnn(S(=O)(=O)C6CC6)c5)n4)cc3N[C@H]3CC[C@@](C)(O)CC3)nc2)CC1 [Example 83]
tgt: EGFR del19/C797S (Homo sapiens, UniProt P00533, C797S/DEL746-750)
IC50 (nM): 0.2

a = O=S(=O)(C1CC1)n1cc(-c2nccc(Nc3cc(N[C@H]4CC[C@@H](CO)CC4)c(-c4cc(C(F)F)ccn4)cn3)n2)cn1 [Example 77]
b = CN(C)C[C@H]1CC[C@@H](Nc2cc(Nc3ccnc(-c4cnn(S(=O)(=O)C5CC5)c4)n3)ncc2-c2cc(C(F)F)ccn2)CC1 [Example 79]
c = CC(C)(O)[C@H]1CC[C@@H](Nc2cc(Nc3ccnc(-c4cnn(S(=O)(=O)C5CC5)c4)n3)ncc2-c2cnc(N3CCC(F)(F)CC3)cn2)CC1 [Example 72]
d = C[C@]1(O)CC[C@@H](Nc2cc(Nc3ccnc(-c4cnn(S(=O)(=O)C5CC5)c4)n3)ncc2-c2cc(N3CCC(F)(F)CC3)ccn2)CC1 [Example 102]
Request: Give the ascending ranking of the items by reported IC50. Rank the items, then write their labels in that order.
Result: b, a, d, c

1 = CN(C)c1cnc(-c2cnc(Nc3ccnc(-c4cnn(S(=O)(=O)C5CC5)c4)n3)cc2N[C@H]2CC[C@@](C)(O)CC2)nc1 [Example 39]
2 = CN1CCC(Oc2ccc(-c3cnc(Nc4ccnc(-c5cnn(CC(F)F)c5)n4)cc3NC3CC(F)(F)C3)nc2)CC1 [Example 139]
Request: Of 1 versus 2 , which is the one with smaller reported IC50? # respond with the chosen item's label
Result: 1

* * *

target: EGFR L858R/C797S (Homo sapiens, UniProt P00533, C797S/L858R); assay: Biochemical EGFR kinase assay (Lance Ultra TR-FRET), double mutant L858R/C797S; details: IC50 L858R/C797S (nM) 100 μM ATP, 100 μM ATP
Sequence (P00533 25-1210 C797S/L858R): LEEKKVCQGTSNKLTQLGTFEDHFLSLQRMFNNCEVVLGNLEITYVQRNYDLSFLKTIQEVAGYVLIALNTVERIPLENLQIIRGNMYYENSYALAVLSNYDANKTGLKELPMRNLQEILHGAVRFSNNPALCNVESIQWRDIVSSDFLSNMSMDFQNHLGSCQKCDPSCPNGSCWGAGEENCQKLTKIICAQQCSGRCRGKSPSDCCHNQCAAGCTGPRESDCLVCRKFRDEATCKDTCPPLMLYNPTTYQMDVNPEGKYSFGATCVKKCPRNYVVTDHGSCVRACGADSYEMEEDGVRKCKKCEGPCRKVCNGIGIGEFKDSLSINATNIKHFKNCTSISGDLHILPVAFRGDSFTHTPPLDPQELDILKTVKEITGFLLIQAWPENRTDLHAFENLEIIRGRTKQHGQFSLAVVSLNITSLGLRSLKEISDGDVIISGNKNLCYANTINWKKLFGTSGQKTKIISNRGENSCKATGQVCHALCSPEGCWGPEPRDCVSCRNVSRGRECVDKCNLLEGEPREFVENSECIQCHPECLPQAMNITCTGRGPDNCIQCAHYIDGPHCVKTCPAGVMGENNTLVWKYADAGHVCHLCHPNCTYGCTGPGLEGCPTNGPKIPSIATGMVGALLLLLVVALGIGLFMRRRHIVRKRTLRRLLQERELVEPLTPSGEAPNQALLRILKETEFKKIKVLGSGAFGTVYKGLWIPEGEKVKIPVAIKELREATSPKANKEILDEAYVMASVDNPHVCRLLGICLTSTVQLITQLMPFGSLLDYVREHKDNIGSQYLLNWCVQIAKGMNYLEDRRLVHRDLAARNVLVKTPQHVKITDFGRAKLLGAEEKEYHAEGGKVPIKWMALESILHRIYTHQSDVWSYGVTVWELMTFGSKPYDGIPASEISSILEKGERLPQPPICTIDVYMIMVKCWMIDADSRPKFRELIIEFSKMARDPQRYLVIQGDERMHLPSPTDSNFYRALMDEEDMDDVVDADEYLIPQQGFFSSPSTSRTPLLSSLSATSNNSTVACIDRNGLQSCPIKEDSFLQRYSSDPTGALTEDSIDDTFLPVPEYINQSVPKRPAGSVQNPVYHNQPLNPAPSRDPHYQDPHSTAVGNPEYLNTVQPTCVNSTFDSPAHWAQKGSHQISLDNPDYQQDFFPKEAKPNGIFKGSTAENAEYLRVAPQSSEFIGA
outcome_measure: IC50 (nM)

Below: 4 compounds and their reported IC50.
compound: CC(C)(O)c1ccc(-c2cnc(Nc3ccnc(-c4cnn(S(=O)(=O)C5CC5)c4)n3)cc2N[C@H]2CC[C@@](C)(O)CC2)nn1 [Example 86]
IC50 (nM): 11.4

compound: CC(C)(O)[C@H]1CC[C@@H](Nc2cc(Nc3ccnc(-c4cnn(S(=O)(=O)C5CC5)c4)n3)ncc2-c2ccc(N3CCC(F)(F)CC3)nn2)CC1 [Example 71]
IC50 (nM): 355

compound: CC(C)(O)c1cc(-c2cnc(Nc3ccnc(-c4cnn(S(=O)(=O)C5CC5)c4)n3)cc2N[C@H]2CC[C@@](C)(O)CC2)ncc1F [Example 104]
IC50 (nM): 21.6

compound: CN(C)C[C@H]1CC[C@@H](Nc2cc(Nc3ccnc(-c4cnn(S(=O)(=O)C5CC5)c4)n3)ncc2-c2cc(C(F)F)ccn2)CC1 [Example 79]
IC50 (nM): 4.7

a = O=S(=O)(C1CC1)n1cc(-c2nccc(Nc3cc(N[C@H]4CC[C@](O)(CO)CC4)c(-c4ccccn4)cn3)n2)cn1 [Example 37]
b = C[C@]1(O)CC[C@@H](Nc2cc(Nc3ccnc(-c4cnn(S(=O)(=O)C5CC5)c4)n3)ncc2-c2cccc(CO)n2)CC1 [Example 27]
Request: Recorded IC50 values differ for a and b ; which one is higher? Identify your pick by its label.
Result: a
(a: 21.3 nM, b: 1.6 nM)

* * *

target: EGFR del19/C797S (Homo sapiens, UniProt P00533, C797S/DEL746-750); experiment: Biochemical EGFR kinase assay (Lance Ultra TR-FRET), double mutant del19/C797S; conditions: IC50 del19/C797S (nM) 100 μM ATP, 100 μM ATP
outcome_measure: IC50 (nM)

molecule: CN1CCN(Cc2cnc(-c3cnc(Nc4ccnc(-c5cnn(S(=O)(=O)C6CC6)c5)n4)cc3N[C@H]3CC[C@@](C)(O)CC3)cn2)CC1
tgt: EGFR del19/C797S (Homo sapiens, UniProt P00533, C797S/DEL746-750)
unit_label: nM
IC50: 0.2
//
molecule: CN1CCN(c2ccc(-c3cnc(Nc4ccnc(-c5cnn(S(=O)(=O)C6CC6)c5)n4)cc3N[C@H]3CC[C@@H](CO)CC3)nc2)CC1
tgt: EGFR del19/C797S (Homo sapiens, UniProt P00533, C797S/DEL746-750)
unit_label: nM
IC50: 0.3
//
molecule: O=S(=O)(C1CC1)n1cc(-c2nccc(Nc3cc(N[C@H]4CC[C@@H](NCCF)CC4)c(-c4ccccn4)cn3)n2)cn1
tgt: EGFR del19/C797S (Homo sapiens, UniProt P00533, C797S/DEL746-750)
unit_label: nM
IC50: 0.9
//
molecule: CN(C)C[C@H]1CC[C@@H](Nc2cc(Nc3ccnc(-c4cnn(S(=O)(=O)C5CC5)c4)n3)ncc2-c2cc(N3CCC(F)(F)CC3)ccn2)CC1
tgt: EGFR del19/C797S (Homo sapiens, UniProt P00533, C797S/DEL746-750)
unit_label: nM
IC50: 2.4
//
molecule: CN(C)C[C@H]1CC[C@@H](Nc2cc(Nc3ccnc(-c4cnn(S(=O)(=O)C5CC5)c4)n3)ncc2-c2cnc(N3CCC(F)(F)CC3)cn2)CC1
tgt: EGFR del19/C797S (Homo sapiens, UniProt P00533, C797S/DEL746-750)
unit_label: nM
IC50: 2.4
//
molecule: Cc1cnc(-c2cnc(Nc3ccnc(-c4cnn(S(=O)(=O)C5CC5)c4)n3)cc2N[C@H]2CC[C@@](C)(O)CC2)cn1
tgt: EGFR del19/C797S (Homo sapiens, UniProt P00533, C797S/DEL746-750)
unit_label: nM
IC50: 0.9

P = CC(C)(O)c1cc(-c2cnc(Nc3ccnc(-c4cnn(S(=O)(=O)C5CC5)c4)n3)cc2N[C@H]2CC[C@@H](CO)CC2)ncc1F
Q = CN1CCN(c2ccnc(-c3cnc(Nc4ccnc(-c5cnn(S(=O)(=O)C6CC6)c5)n4)cc3N[C@H]3CC[C@@](C)(O)CC3)c2)CC1
R = C[C@]1(O)CC[C@@H](Nc2cc(Nc3ccnc(-c4cnn(S(=O)(=O)C5CC5)c4)n3)ncc2-c2cnc(N3CCOCC3)cn2)CC1
Request: Your job: order these 3 records by IC50, ascending. Give the order by naming the labels one after another as requested.
Result: R, P, Q
(R: 0.8 nM, P: 3.9 nM, Q: 7.2 nM)

P = CC(C)(O)c1ccnc(-c2cnc(Nc3ccnc(-c4cnn(S(=O)(=O)C5CC5)c4)n3)cc2N[C@H]2CC[C@@H](C(C)(C)O)CC2)c1
Q = CC(C)(O)[C@H]1CC[C@@H](Nc2cc(Nc3ccnc(-c4cnn(S(=O)(=O)C5CC5)c4)n3)ncc2-c2ccc(N3CCCC3)cn2)CC1
R = CN1CCN(c2ccc(-c3cnc(Nc4ccnc(-c5cnn(S(=O)(=O)C6CC6)c5)n4)cc3N[C@H]3CC[C@@](C)(O)CC3)nn2)CC1
Request: Rank order required: IC50, descending. Thanks in advance for listing the labels in the requested order.
Result: Q, P, R
(Q: 13.3 nM, P: 6.4 nM, R: 0.4 nM)
